From: patent US12600726B2

study-target: Rat M4 (Rattus norvegicus, UniProt P08485)
Construct: expressed in transfected cells; host or cells: CHO-K1 (ATCC), stably expressing M4 and Gqi5
Sequence (P08485 1-478): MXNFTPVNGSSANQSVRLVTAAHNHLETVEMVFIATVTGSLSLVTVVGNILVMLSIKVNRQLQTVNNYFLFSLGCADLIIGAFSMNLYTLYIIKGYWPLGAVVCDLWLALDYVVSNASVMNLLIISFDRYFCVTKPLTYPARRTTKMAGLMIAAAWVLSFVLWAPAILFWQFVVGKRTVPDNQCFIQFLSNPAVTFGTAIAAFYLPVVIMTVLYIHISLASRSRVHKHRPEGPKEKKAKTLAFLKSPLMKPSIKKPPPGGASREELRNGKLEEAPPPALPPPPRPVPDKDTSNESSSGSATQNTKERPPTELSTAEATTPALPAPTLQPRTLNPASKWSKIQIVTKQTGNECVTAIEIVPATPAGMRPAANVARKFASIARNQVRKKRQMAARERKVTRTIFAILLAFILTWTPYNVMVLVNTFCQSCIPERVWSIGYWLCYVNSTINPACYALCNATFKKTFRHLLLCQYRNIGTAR
test-summary: mAChR M4 cell-based functional calcium flux assay (rat M4/Gqi5/CHO cells)
measurement-context: decrease of the response to an EC80 concentration of acetylcholine
pIC50: −log10 of the molar value.
quantity-measured: pIC50

Below, 6 compounds whose answers are already recorded.
COc1ccc(F)cc1-c1ccc(NCC2CC23CCN(CCC(C)(C)C)CC3)nn1 (centres unmarked)	7.16
CC(C)(C)CCN1CCC2(CC1)CC2COc1ccc(-c2cc(F)ccc2Cl)nn1 (centres unmarked)	6.54
Cc1nn(C)cc1-c1cnc(NCC2CC23CCN(CC(C)C(C)(C)C)CC3)cn1 (centres unmarked)	6.39
Cn1nc(C(F)(F)F)cc1-c1ccc(NCC2CC23CCN(CCC(C)(C)C)CC3)nn1 (centres unmarked)	7.24
CC(C)(C)CCN1CCC2(CC1)CC2CNc1ccc(-c2cccc(F)c2)nn1 (centres unmarked)	6.82
Fc1ccc(Cl)c(-c2ccc(NCC3CC34CCN(CC3CCCCC3)CC4)nn2)c1 (centres unmarked)	6.64

A. CC(C)(C)CCN1CCC2(CC1)CC2CNc1ccc(-c2ccc(F)cc2Cl)nn1 (centres unmarked)
B. c1ccc(-c2cnc(NCC3CC34CCN(CC3CCOCC3)CC4)s2)cc1 (centres unmarked)
Ask: // compare: A vs B , metric pIC50, want the smaller Return value: the label identifying the chosen record.
Result: B

----------
study-target: Human M4 (Homo sapiens, UniProt P08173)
Construct: expressed in transfected cells; host or cells: CHO-K1 (ATCC), stably expressing M4 and Gqi5
Sequence (P08173 whole entry): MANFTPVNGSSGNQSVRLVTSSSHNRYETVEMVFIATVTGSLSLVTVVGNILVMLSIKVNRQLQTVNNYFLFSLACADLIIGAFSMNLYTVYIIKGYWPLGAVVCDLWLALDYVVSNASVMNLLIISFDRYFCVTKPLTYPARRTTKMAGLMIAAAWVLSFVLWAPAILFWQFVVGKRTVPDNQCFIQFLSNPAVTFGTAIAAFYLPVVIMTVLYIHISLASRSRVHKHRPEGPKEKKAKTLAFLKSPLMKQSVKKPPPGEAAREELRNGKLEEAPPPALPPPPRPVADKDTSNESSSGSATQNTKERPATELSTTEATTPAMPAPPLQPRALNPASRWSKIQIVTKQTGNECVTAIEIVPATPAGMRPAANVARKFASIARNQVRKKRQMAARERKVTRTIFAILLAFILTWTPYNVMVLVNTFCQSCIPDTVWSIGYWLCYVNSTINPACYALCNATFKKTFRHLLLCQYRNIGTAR
test-summary: mAChR M4 cell-based functional calcium flux assay (human M4/Gqi5/CHO cells)
measurement-context: % ACh maximum at 30 μM
quantity-measured: Emin (human M4) (%)

Below, 6 molecules whose answers are already recorded.
CC(=O)Nc1ccc(-c2ccc(NC[C@@H]3CC34CCN(CC35CC6CC(CC(C6)C3)C5)CC4)nn2)cc1 [Compound 120]	4
CC(C)(C)CCN1CCC2(CC1)CC2CNc1ccc(-c2ccc(F)cc2)nn1 (centres unmarked) [Compound 2]	2.54
Fc1ccc(Cl)c(-c2ccc(NCC3CC34CCN(Cc3ccccc3F)CC4)nn2)c1 (centres unmarked) [Compound 100]	2
CC(C)(C)CCN1CCC2(CC1)CC2CNc1ccc(-c2cc(F)ccc2Cl)nn1 (centres unmarked) [Compound 13]	2.29
Fc1ccc(Cl)c(-c2ccc(NC[C@@H]3CC34CCN(Cc3ccccn3)CC4)nn2)c1 [Compound 113]	2
Cc1nn(C)cc1-c1nnc(NCC2CC23CCN(CC2CCOCC2)CC3)c2ccccc12 (centres unmarked) [Compound 93]	9

a. CC(C)(C)CCN1CCC2(CC1)CC2CNc1ccc(-c2ccccc2)nn1 (centres unmarked) [Compound 34]
b. N#Cc1ccccc1CN1CCC2(CC1)CC2CNc1ccc(-c2cc(F)ccc2Cl)nn1 (centres unmarked) [Compound 98]
Ask: Given the listed records, identify the one among a and b with higher Emin (human M4). Return value: the label identifying the chosen record.
Result: b
